Where do these numbers come from? They come from PubChem BioAssay (NCI).

- Test system: MDA-N
- PROCEDURE_TEXT: NCI tumour cell line growth inhibition, 48 h
PROPERTY_LABEL: TGI (µM)

1) C=CC[n+]1c2ccccc2n2cc([N+](=O)[O-])ccc21
50.7
2) Cc1cc2c([nH]c3ccccc32)c(O)c1-c1c(C)cc2c([nH]c3ccccc32)c1O
27.8
3) COc1cc(C2C(Cl)C(=O)N2c2c(C)n(C)n(-c3ccccc3)c2=O)ccc1O (stereo not given)
32.6
4) COc1ccc(C(SC2C(O)C(CO)OC2n2ccc(=O)[nH]c2=O)(c2ccccc2)c2ccc(OC)cc2)cc1 (stereo not given)
26.1

* * *

- Test system: IGROV1 ovarian
- PROCEDURE_TEXT: NCI tumour cell line growth inhibition, 48 h; in the data active = GI50 below about 0.43 µM; inactive = the rest
Classes used: TRUE = active, FALSE = inactive

1) NCCOCCOCCNc1nc(-c2ccc(Cl)cc2)nc(N2CCN(c3ccccn3)CC2)n1
FALSE
2) CC(=O)[O-].[Mn+3].[O-]c1ccccc1C=NCCNCCN=Cc1ccccc1[O-]
FALSE
3) N.N.N.N.N.O=[N+]([O-])[O-].[Co+3].[O-][Cl+3]([O-])([O-])[O-]
FALSE
4) CC(C)(C)OC(=O)NCCCn1c2c(c3ccccc3c1=O)C(=O)c1ccccc1-2
FALSE
5) c1ccc(-c2nc(N3CCOCC3)c3c4c(sc3n2)CCCCCC4)nc1
FALSE
6) COc1cnc2c(c1)C(=O)c1c-2n(CCCNCCO)c(=O)c2ccncc12
FALSE
7) COc1cc2c(cc1OCCCCCCN1CCN(CC(=O)Nc3ccc(Cl)cc3C(=O)c3ccccc3Cl)CC1)N=CC1CCCN1C2=O (stereo not given)
TRUE
8) Cc1nc2ccc(NC(=O)CCNC(=O)CCCc3ccc(CC(C(=O)O)C(=O)O)cc3)cc2s1
FALSE
9) O=C(NCCc1ccccn1)OCc1nc2nc(Cl)nc(N3CCOCC3)c2[nH]1
FALSE
10) Cc1nc(Nc2ccccn2)sc1C(=O)/C=C/c1ccc(Cl)cc1
TRUE

* * *

- System: PC-3 prostate
- PROCEDURE_TEXT: NCI tumour cell line growth inhibition, 48 h
Where a SMILES comes first, the peptide text is derived from it. [ ]: non-standard residue; d: D form. The star is where a group is joined. Bn2Val = CC(C)[C@@H](C(=O)*)N(Cc1ccccc1)Cc1ccccc1; NH(4-Cl-benzyl) = Clc1ccc(CN*)cc1; NMeV = CN[C@H](C(=O)O)C(C)C; dNMeA = CN[C@H](C)C(=O)O
PROPERTY_LABEL: TGI

1) C=C(C)[C@H]1C2=CC(C)=C(O2)[C@@H](O[C@@H]2c3oc(cc3C)[C@H](C(=C)C)[C@H]3C=C(CC[C@H]2C(=C)C)C(=O)O3)[C@H](C(=C)C)CCC2=C[C@H]1OC2=O
> 100 µM
2) COc1ccc(C(=O)CC(c2ccccc2)[C@H]2C(c3ccc(OC)cc3)=Nc3c(nc(SC)n(C)c3=O)NC2c2ccccc2)cc1 (some centres undefined)
> 100 µM
3) Cc1nn2c(/C=C3/C(=O)Nc4cc(Cl)ccc43)c(-c3ccccc3)nc2s1
> 100 µM
4) NCC(O)CSCc1ccc(Cl)cc1 (centres undefined)
> 100 µM
5) CC(C)=CCC(OC(=O)C=C(C)C)C1=CC(=O)c2c(O)ccc(O)c2C1=O (centres undefined)
8.74 µM
6) COc1ccc(Nc2ccc3ccccc3c2-c2c(O)ccc3ccccc23)cc1
29.3 µM
7) CCOC(=O)c1cc(C)nc2c1c(=O)n(-c1ccccc1)c(=O)n2CCCCN1CCN(c2ccccc2)CC1
> 100 µM
8) O=C1CC(=O)n2cnc3cccc(c32)N1
> 100 µM
9) C1=C2CCCC3=Cc4ccccc4OC23Oc2ccccc21
> 100 µM
10) C#CCn1c(=O)c(C)cn(/C(=C\C(=O)OCC)C(=O)OCC)c1=O
27.6 µM
11) Cc1nn(-c2ccccc2)c(C)c1/C=N/N=C1\S/C(=C\c2ccc(Cl)cc2)C(=O)N1c1ccccc1
> 100 µM
12) CN(C)CCn1c(CO)nc2c1c(=O)n(C)c(=O)n2C
> 100 µM
13) COc1ccc(-c2nc(-c3nc4ccc(F)cc4[nH]3)c3ccccn23)cc1
46.9 µM
14) CC(C)[C@H](NC(=O)[C@H](C(C)C)N(Cc1ccccc1)Cc1ccccc1)C(=O)N(C)[C@H](C(=O)N1CCC[C@H]1C(=O)N(C)[C@H](C)C(=O)NCc1ccc(Cl)cc1)C(C)C (Bn2Val-V[NMeV]P[dNMeA]-{NH(4-Cl-benzyl)})
> 100 µM
15) Cc1nc(Nc2cccnc2)sc1C(=O)/C=C/c1ccc(Cl)cc1
12 µM
16) O=P1(S)OC[C@H]2O[C@@H]3[C@H](F)[C@@H]2OP(O)(=S)OC[C@H]2O[C@H]([C@H](F)[C@@H]2O1)n1cnc2c(ncnc21)NC/C=C/CNc1ncnc2c1ncn23 (some centres undefined)
> 100 µM
17) COc1cc(C2C(Cl)C(=O)N2c2c(C)n(C)n(-c3ccccc3)c2=O)ccc1O (centres undefined)
> 100 µM
18) O=c1/c(=C\c2ccc(F)cc2)sc2n1C(c1ccc(F)cc1)C1=C(N=2)c2ccc3ccccc3c2OCC1 (centres undefined)
> 100 µM
19) O=C(Nn1c(-c2ccccc2)nc2ccccc2c1=O)c1ccccc1O
> 100 µM
20) c1ccc2c(-c3nc(-c4c[nH]c5ccncc45)cs3)c[nH]c2c1
6.25 µM
21) O=c1c(-c2ccccc2)c(SCCO)n(-c2ccccc2)c(=S)n1-c1ccccc1
> 100 µM
22) Cc1cc(OC(=O)NCn2cc(-c3ccccc3)nn2)ccc1Cl
> 100 µM
23) CC(C)=CCNc1nc(Cl)nc2nc[nH]c12
> 100 µM
24) CN(C)/N=N/c1nc2c(c(=O)n(C)c(=O)n2C)n1CC(O)CO (centres undefined)
> 100 µM
25) C/C(=N\NC(=S)N(C)C)c1cccnn1
> 100 µM
26) Cc1cc(C)c2c(c1)C(=O)/C(=C/c1ccccc1C(=O)O)C2
> 100 µM
27) CC(C)C(C/C=C1\CC(CO)(COC(=O)C2CCCCC2)OC1=O)C(C)C (centres undefined)
37.2 µM
28) Cc1nc(N)c(N2CCN(CN)CC2)c(=O)[nH]1
> 100 µM
29) O=C(Cc1ccc(Cl)c(Cl)c1)NCC1(N2CCCCC2)CCCCC1
> 100 µM
30) O=C1NC(=O)C(C(CC(=O)c2ccc(Cl)cc2)c2ccc(Cl)cc2)C(=O)N1 (centres undefined)
> 100 µM
31) Cc1nc2c(n1C)C(=O)c1ccccc1C2=O
> 100 µM
32) NCCOCCOCCNc1nc(-c2ccc(Cl)cc2)nc(N2CCN(c3ccccn3)CC2)n1
3.92 µM
33) COc1cnc2c(c1)C(=O)c1c-2n(CCCNCCO)c(=O)c2ccncc12
11.1 µM
34) O=C([O][Sn]([O]C(=O)c1ccccn1)([c]1ccccc1)[c]1ccccc1)c1ccccn1
25.6 µM
35) COC[C@@H](N=Cc1ccc([N+](=O)[O-])cc1)C(C)C
> 100 µM
36) C=CCP(=O)(CC=C)C(Cl)Cl
> 100 µM
37) O=C1CC(c2[nH]nc3ccccc23)C(=O)N1c1ccccc1 (centres undefined)
> 100 µM
38) CN(Cc1cnc2nc(N)nc(N)c2n1)c1ccc(C(=O)NC(CO)CCCO)cc1 (centres undefined)
> 100 µM
39) CCOC(=O)c1cc2c([N+](=O)[O-])c(N)ccc2s1
> 100 µM
